Measured Post-emerge phytotoxicity rating RICE (crop damage) accompanies every entry in the list below.
Tested on: upland rice (Oryza sp., var. Tebonnet, RICE)
test_description: Post-emerge test, crop safety
Assay type: in vivo
condition_summary: Rate 250 g ai/ha; rating scale 0-100 (0 no damage, 100 complete death); 14 days after application
observable: Post-emerge phytotoxicity rating RICE (crop damage)

# compound, system_name, reported
records = [
    ("COc1c(Cl)cc(F)c(-n2c(=O)cc(C(F)(F)F)n(C)c2=O)c1CC(C)(Cl)C(=O)OC(C(F)(F)F)C(F)(F)F (stereo not shown)", "upland rice (Oryza sp., var. Tebonnet, RICE)", 100),
    ("C=CCOC(=O)C(C)(Cl)Cc1c(OC)c(Cl)cc(F)c1-n1c(=O)cc(C(F)(F)F)n(C)c1=O (stereo not shown)", "upland rice (Oryza sp., var. Tebonnet, RICE)", 100),
    ("COc1c(Cl)cc(F)c(-n2c(=O)cc(C(F)(F)F)n(C)c2=O)c1CC(Cl)C(=O)OCCC#N (stereo not shown)", "upland rice (Oryza sp., var. Tebonnet, RICE)", 10),
    ("CCOC(=O)C(C)(Cl)Cc1c(OC)c(Cl)cc(F)c1-n1c(=O)cc(C(F)(F)F)n(C)c1=O (stereo not shown)", "upland rice (Oryza sp., var. Tebonnet, RICE)", 70),
]

* * *

Reported Pre-emerge Herbicidal Activity IPOHE by item:
Test system: ivyleaf morningglory (Ipomoea hederacea, IPOHE)
test_description: Pre-emerge test, greenhouse herbicide activity screening
Assay type: in vivo
condition_summary: 250 g ai/ha; phytotoxicity rating 0-100, 14 days after application

# molecule, Pre-emerge Herbicidal Activity IPOHE
rows = [
    ("COc1c(Cl)cc(F)c(-n2c(=O)cc(C(F)(F)F)n(C)c2=O)c1NC(=O)OCc1ccc(F)c(F)c1", 100),
    ("COc1c(Cl)cc(F)c(-n2c(=O)cc(C(F)(F)F)n(C)c2=O)c1NC(=O)OCc1ccccc1C(F)(F)F", 70),
    ("CCOC(=O)C(C)Oc1c(Cl)cc(F)c(-n2c(=O)cc(C(F)(F)F)n(C)c2=O)c1NC(=O)c1ccc2ccccc2c1 (stereo not drawn)", 40),
    ("Cn1c(C(F)(F)F)cc(=O)n(-c2c(F)cc(Cl)c(Oc3ncccc3[N+](=O)[O-])c2NC(=O)c2ccc3ccccc3c2)c1=O", 100),
    ("COc1c(Cl)cc(F)c(-n2c(=O)cc(C(F)(F)F)n(C)c2=O)c1NC(=O)OCc1cc(F)ccc1F", 100),
    ("COc1c(Cl)cc(F)c(-n2c(=O)cc(C(F)(F)F)n(C)c2=O)c1NC(=O)OCc1ccc(C)c(C)c1", 10),
    ("COc1c(Cl)cc(F)c(-n2c(=O)cc(C(F)(F)F)n(C)c2=O)c1NC(=O)OCc1ccc(C(F)(F)F)cc1", 10),
    ("COc1c(Cl)cc(F)c(-n2c(=O)cc(C(F)(F)F)n(C)c2=O)c1NC(=O)OC(c1ccccc1)C1CC1 (stereo not drawn)", 85),
    ("COc1c(Cl)cc(F)c(-n2c(=O)cc(C(F)(F)F)n(C)c2=O)c1NC(=O)OCc1c(F)cccc1F", 90),
]

* * *

Reported Post-emerge phytotoxicity rating CORN (crop damage) by item:
System: field corn (Zea mays L., var. Dekalb 535, CORN)
test_description: Post-emerge test, crop safety
Format: in vivo
condition_summary: Rate 250 g ai/ha; rating scale 0-100 (0 no damage, 100 complete death); 14 days after application
observable: Post-emerge phytotoxicity rating CORN (crop damage)

# molecule, reported
data = [
    ("CCOC(=O)C(Cl)(CC(=O)OC)Cc1c(OC)c(Cl)cc(F)c1-n1c(=O)cc(C(F)(F)F)n(C)c1=O (stereo not shown) [14-50]", 30),
    ("COc1c(Cl)cc(F)c(-n2c(=O)cc(C(F)(F)F)n(C)c2=O)c1CC(C)(Cl)C(=O)OCC(F)(F)C(F)F (stereo not shown) [14-45]", 100),
    ("CCCCOC(=O)C(Cl)Cc1c(OC)c(Cl)cc(F)c1-n1c(=O)cc(C(F)(F)F)n(C)c1=O (single isomer, unassigned) [14-8]", 80),
    ("CCCCOC(=O)C(C)(Cl)Cc1c(OC)c(Cl)cc(F)c1-n1c(=O)cc(C(F)(F)F)n(C)c1=O (stereo not shown) [14-36]", 95),
    ("COc1c(Cl)cc(F)c(-n2c(=O)cc(C(F)(F)F)n(C)c2=O)c1CC(C)(Cl)C(=O)OCc1ccccc1 (stereo not shown) [14-41]", 100),
    ("CCCOC(=O)C(C)(Cl)Cc1c(OC)c(Cl)cc(F)c1-n1c(=O)cc(C(F)(F)F)n(C)c1=O (stereo not shown) [14-35]", 100),
    ("COc1c(Cl)cc(F)c(-n2c(=O)cc(C(F)(F)F)n(C)c2=O)c1CC(Cl)C(=O)OCC(C)C (single isomer, unassigned) [14-14]", 50),
]
